Test target: PxRDL2 (Plutella xylostella)
Sequence (C0L7I7 30-520): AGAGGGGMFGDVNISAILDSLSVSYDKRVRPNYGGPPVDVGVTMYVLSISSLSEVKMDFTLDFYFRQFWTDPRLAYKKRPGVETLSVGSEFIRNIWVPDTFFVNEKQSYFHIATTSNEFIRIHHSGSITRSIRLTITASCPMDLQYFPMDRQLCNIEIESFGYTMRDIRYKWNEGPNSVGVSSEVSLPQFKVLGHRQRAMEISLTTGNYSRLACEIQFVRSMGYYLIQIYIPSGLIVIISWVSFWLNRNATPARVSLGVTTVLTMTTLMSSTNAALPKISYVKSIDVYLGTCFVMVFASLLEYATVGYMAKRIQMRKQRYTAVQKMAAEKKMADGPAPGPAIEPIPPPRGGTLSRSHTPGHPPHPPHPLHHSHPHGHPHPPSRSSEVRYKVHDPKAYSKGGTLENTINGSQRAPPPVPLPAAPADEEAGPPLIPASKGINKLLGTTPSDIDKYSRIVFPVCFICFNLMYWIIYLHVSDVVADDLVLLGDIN
Assay overview: two-electrode voltage clamp, Xenopus oocytes
Property name: IC50 (µM)
Answers are plain numbers, in µM.

What value of IC50 has been recorded for this entry: N#Cc1nn(-c2c(Cl)cc(C(F)(F)F)cc2Cl)c(N)c1[S+]([O-])C(F)(F)F (stereo not shown)
5.23

###

Test target: PxRDL1 (Plutella xylostella, UniProt C0L7I5)
Sequence (C0L7I5 26-485): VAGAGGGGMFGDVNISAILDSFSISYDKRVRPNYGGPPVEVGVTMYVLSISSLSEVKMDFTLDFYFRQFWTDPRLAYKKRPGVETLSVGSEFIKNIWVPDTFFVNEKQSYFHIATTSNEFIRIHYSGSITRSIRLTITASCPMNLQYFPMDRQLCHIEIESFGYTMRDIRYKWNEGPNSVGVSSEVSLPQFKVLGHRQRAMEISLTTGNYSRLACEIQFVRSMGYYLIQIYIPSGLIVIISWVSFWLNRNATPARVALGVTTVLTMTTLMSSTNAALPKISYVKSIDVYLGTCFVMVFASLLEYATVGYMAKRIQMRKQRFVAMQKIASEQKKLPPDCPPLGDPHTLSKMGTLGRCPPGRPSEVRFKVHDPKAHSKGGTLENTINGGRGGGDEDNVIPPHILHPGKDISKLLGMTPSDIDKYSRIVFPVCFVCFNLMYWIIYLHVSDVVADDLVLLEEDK
Property name: pIC50
One number for each entry, as −log10 of the molar value.

What value of pIC50 has been recorded for this entry: N#Cc1nn(-c2c(Cl)cc(C(F)(F)F)cc2Cl)c(N)c1[S+]([O-])C(F)(F)F (stereo not shown)
6.89
